Data origin, for the record: PubChem BioAssay AID1745844

- Tested on: rodent lifetime carcinogenesis bioassay, tumor incidence TD50
- Test Protocol: carcinogenic potency in animals, long-term in vivo studies, CPDB compilation (AID 1745844)
- Condition: rat; strain Fischer 344; females; in drinking water; site: pharynx + tongue; lesion: squamous-cell carcinoma; dosed 98 weeks; study length 104 weeks
Measured Metric: TD50 (mg/kg/day)

>>> measurement("Cc1ccc(S(=O)(=O)Oc2ccc(N=Nc3ccc(-c4ccc(N=Nc5c(O)ccc6cc(S(=O)(=O)O)cc(S(=O)(=O)O)c56)c(C)c4)cc3C)cc2)cc1")
227

* * *

- Tested on: rodent lifetime carcinogenesis bioassay, tumor incidence TD50
- Test Protocol: carcinogenic potency in animals, long-term in vivo studies, CPDB compilation (AID 1745844)
- Condition: mouse; strain B6C3F1; males; inhaled; site: liver; lesion: hepatocellular carcinoma; dosed 26 weeks; study length 53 weeks
Measured Metric: TD50 (mg/kg/day)

>>> measurement("C=CC(=C)C")
1270

* * *

- System: rodent lifetime carcinogenesis bioassay, tumor incidence TD50
- Test Protocol: carcinogenic potency in animals, long-term in vivo studies, CPDB compilation (AID 1745844)
- Condition: mouse; strain B6C3F1; males; by gavage; site: stomach; lesion: papillomatosis + squamous-cell papilloma; dosed 103 weeks; study length 104 weeks
Measured Metric: TD50

>>> measurement("c1cc(OCC2CO2)cc(OCC2CO2)c1 (stereo unspecified)")
"145 mg/kg/day"

* * *

- Test system: rodent lifetime carcinogenesis bioassay, tumor incidence TD50
- Test Protocol: carcinogenic potency in animals, long-term in vivo studies, CPDB compilation (AID 1745844)
- Condition: mouse; strain Swiss CD-1; females; in drinking water; site: uterus; lesion: one or several types; types not named; dosed 104 weeks; study length 104 weeks
Measured Metric: TD50

>>> measurement("CN(N=O)c1ncnc2nc[nH]c12")
"84.9 mg/kg/day"

* * *

- System: rodent lifetime carcinogenesis bioassay, tumor incidence TD50
- Test Protocol: carcinogenic potency in animals, long-term in vivo studies, CPDB compilation (AID 1745844)
- Condition: rat; strain Wistar; males; inhaled; site: lung; lesion: epidermoid carcinoma; dosed 78 weeks; study length 134 weeks
Measured Metric: TD50

>>> measurement("[Cl][Cd][Cl]")
"0.0588 mg/kg/day"

* * *

- Test system: rodent lifetime carcinogenesis bioassay, tumor incidence TD50
- Test Protocol: carcinogenic potency in animals, long-term in vivo studies, CPDB compilation (AID 1745844)
- Condition: monkey; strain Rhesus [Macaca mulatta]; both sexes; in feed; site: salivary gland; lesion: adenoma; dosed 774 weeks; study length 851 weeks
Measured Metric: TD50 (mg/kg/day)

>>> measurement("Cn1cnc([N+](=O)[O-])c1Sc1ncnc2nc[nH]c12")
2.18

* * *

- Tested on: rodent lifetime carcinogenesis bioassay, tumor incidence TD50
- Test Protocol: carcinogenic potency in animals, long-term in vivo studies, CPDB compilation (AID 1745844)
- Condition: mouse; strain B6C3F1; females; in feed; site: lung; lesion: alveolar/bronchiolar adenoma + alveolar/bronchiolar carcinoma; dosed 103 weeks; study length 104 weeks
Measured Metric: TD50 (mg/kg/day)

>>> measurement("CCn1cc(C(=O)O)c(=O)c2ccc(C)nc21")
4900
>>> measurement("CNC[C@H](O)c1cccc(O)c1")
1610
>>> measurement("C=CCc1ccc(O)c(OC)c1")
25300
>>> measurement("O=S(=O)(O)c1ccc(N=Nc2c(O)ccc3cc(S(=O)(=O)O)ccc23)cc1")
66400
>>> measurement("C[C@](N)(Cc1ccc(O)c(O)c1)C(=O)O")
25000
>>> measurement("CCCCCCCC/C=C/CCCCCCCC(=O)OCCOCC(OCCO)C1OCC(OCCO)C1OCCO (stereo unspecified)")
332000
>>> measurement("O=P(OCC(Br)CBr)(OCC(Br)CBr)OCC(Br)CBr (stereo unspecified)")
225
>>> measurement("Nc1ccccc1-c1ccccc1")
26100
>>> measurement("COC(=O)[C@H]1[C@H]2C[C@@H]3c4[nH]c5cc(OC)ccc5c4CCN3C[C@H]2C[C@@H](OC(=O)c2cc(OC)c(OC)c(OC)c2)[C@@H]1OC")
54.5
>>> measurement("Cc1noc(NS(=O)(=O)c2ccc(N)cc2)c1C")
11900
>>> measurement("Nc1ccc(N)cc1")
1390
>>> measurement("Cc1ccc(N=Nc2c(O)ccc3ccccc23)c([N+](=O)[O-])c1")
252000
>>> measurement("NC(=O)NN=Cc1ccc([N+](=O)[O-])o1")
241
>>> measurement("CC1CCC(C(C)C)C(O)C1 (stereo unspecified)")
3170
>>> measurement("COc1ccc(N)c(OC)c1")
50600
>>> measurement("O=C(O)c1ccc([N+](=O)[O-])cc1")
2330

* * *

- System: rodent lifetime carcinogenesis bioassay, tumor incidence TD50
- Test Protocol: carcinogenic potency in animals, long-term in vivo studies, CPDB compilation (AID 1745844)
- Condition: rat; strain Fischer 344; females; in drinking water; site: liver; lesion: several types; types named in the paper; dosed 45 weeks; study length 126 weeks
Measured Metric: TD50

>>> measurement("O=NN1CCOCC1")
"0.14 mg/kg/day"

* * *

- Tested on: rodent lifetime carcinogenesis bioassay, tumor incidence TD50
- Test Protocol: carcinogenic potency in animals, long-term in vivo studies, CPDB compilation (AID 1745844)
- Condition: rat; strain August; males; by gavage; site: kidney; lesion: tubular-cell adenoma + tubular-cell adenocarcinoma; dosed 103 weeks; study length 104 weeks
Measured Metric: TD50

>>> measurement("ClC=C(Cl)Cl")
"3810 mg/kg/day"

* * *

- Tested on: rodent lifetime carcinogenesis bioassay, tumor incidence TD50
- Test Protocol: carcinogenic potency in animals, long-term in vivo studies, CPDB compilation (AID 1745844)
- Condition: mouse; strain B6C3F1; males; inhaled; site: any site (literature study); lesion: several types; types named in the paper; dosed 13 weeks; study length 104 weeks
Measured Metric: TD50 (mg/kg/day)

>>> measurement("C=CC=C")
6.92

* * *

- Tested on: rodent lifetime carcinogenesis bioassay, tumor incidence TD50
- Test Protocol: carcinogenic potency in animals, long-term in vivo studies, CPDB compilation (AID 1745844)
- Condition: mouse; strain ICR/Jcl; both sexes; in feed; site: forestomach; lesion: squamous-cell carcinoma; dosed 54 weeks; study length 54 weeks
Measured Metric: TD50

>>> measurement("Cn1cc(C(=O)O)c(=O)c2ccc(/C=C/c3ccc([N+](=O)[O-])o3)nc21")
"10.3 mg/kg/day"

* * *

- Tested on: rodent lifetime carcinogenesis bioassay, tumor incidence TD50
- Test Protocol: carcinogenic potency in animals, long-term in vivo studies, CPDB compilation (AID 1745844)
- Condition: mouse; strain B6C3F1; males; by gavage; site: liver; lesion: hepatocellular adenoma; dosed 104 weeks; study length 104 weeks
The source made the active and inactive calls. No rule for the calls is given here.
Possible outcomes: True = active, False = inactive

>>> category("CCOC(=O)[C@H](CCc1ccccc1)N[C@@H](C)C(=O)N1Cc2ccccc2C[C@H]1C(=O)O")
"False"
>>> category("Clc1cc2c(cc1Cl)Oc1cc(Cl)c(Cl)cc1O2")
"True"

* * *

- System: rodent lifetime carcinogenesis bioassay, tumor incidence TD50
- Test Protocol: carcinogenic potency in animals, long-term in vivo studies, CPDB compilation (AID 1745844)
- Condition: rat; strain Fischer 344; females; in feed; site: liver; lesion: hepatocellular carcinoma; dosed 78 weeks; study length 104 weeks
Measured Metric: TD50

>>> measurement("Cc1ccc2c(c1N)C(=O)c1ccccc1C2=O")
"182 mg/kg/day"
>>> measurement("CC(C)CCCCCCOC(=O)c1ccccc1C(=O)OCCCCCCC(C)C")
"14300 mg/kg/day"

* * *

- Test system: rodent lifetime carcinogenesis bioassay, tumor incidence TD50
- Test Protocol: carcinogenic potency in animals, long-term in vivo studies, CPDB compilation (AID 1745844)
- Condition: mouse; strain C3H (MTV+); females; in feed; site: mammary gland; lesion: carcinoma; dosed 85 weeks; study length 85 weeks
Measured Metric: TD50

>>> measurement("CC/C(=C(/CC)c1ccc(O)cc1)c1ccc(O)cc1")
"0.0292 mg/kg/day"

* * *

- Test system: rodent lifetime carcinogenesis bioassay, tumor incidence TD50
- Test Protocol: carcinogenic potency in animals, long-term in vivo studies, CPDB compilation (AID 1745844)
- Condition: rat; strain Fischer 344; males; in feed; site: colon + rectum; lesion: adenomatous polyp + carcinoma; dosed 12 weeks; study length 103 weeks
Measured Metric: TD50 (mg/kg/day)

>>> measurement("OCC(CO)(CBr)CBr")
146

* * *

- Tested on: rodent lifetime carcinogenesis bioassay, tumor incidence TD50
- Test Protocol: carcinogenic potency in animals, long-term in vivo studies, CPDB compilation (AID 1745844)
- Condition: rat; strain Charles River CD (Sprague-Dawley); males; in feed; site: any site (literature study); lesion: several types; types named in the paper; dosed 64 weeks; study length 73 weeks
Measured Metric: TD50 (mg/kg/day)

>>> measurement("Cc1ccc(N)cc1N")
2.98
